In this section we review reported IC50 values for a set of compounds.
# target or system: IDH1 (R132H) mutant (Homo sapiens, UniProt O75874, R132H)
# Construct: His6 with PreScission site (N, cleaved yes)
# Sequence (O75874 whole entry R132H): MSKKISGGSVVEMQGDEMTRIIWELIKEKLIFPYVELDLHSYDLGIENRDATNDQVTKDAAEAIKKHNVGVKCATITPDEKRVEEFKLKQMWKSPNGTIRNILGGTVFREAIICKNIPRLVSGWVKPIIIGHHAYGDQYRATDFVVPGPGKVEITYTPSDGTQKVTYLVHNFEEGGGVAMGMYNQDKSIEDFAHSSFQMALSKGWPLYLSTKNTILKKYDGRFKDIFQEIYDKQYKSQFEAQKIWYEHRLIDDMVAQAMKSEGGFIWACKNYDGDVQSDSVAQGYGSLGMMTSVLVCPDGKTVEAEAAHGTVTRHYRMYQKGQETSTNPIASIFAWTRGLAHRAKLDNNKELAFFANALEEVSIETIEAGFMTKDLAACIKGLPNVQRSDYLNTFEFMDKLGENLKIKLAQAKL
# test summary: Fluorescence biochemical assay (NADPH oxidation)
# recorded conditions: mIDH R132H 10 nM, 10 μM NADPH, 100 μM α-KG; range where run multiple times

C[C@H](Nc1nccc(N2C(=O)OC[C@]2(C)C2CC2)n1)c1ccc(CN2CCC(C)(O)CC2)cc1F ... 0.0418 to 0.0531 µM
C[C@H](Nc1nccc(N2C(=O)OCC2(C)C2CC2)n1)c1ccc(F)cc1 (single isomer, unassigned) [Example 46] ... 0.793 to 1.21 µM
CNC1CCN(Cc2ccc([C@H](C)Nc3nccc(N4C(=O)OC[C@]4(C)C4CC4)n3)cc2F)CC1 ... 0.105 to 0.111 µM

# next compound below
Form field IC50, entry `C[C@H](Nc1nccc(N2C(=O)OC[C@]2(C)C2CC2)n1)c1ccc(CN2CCC(N(C)C)CC2)c(F)c1` : 0.122 to 0.172 µM
